System: EPO/Jak2/Stat5 pathway
assay.notes: EPO CellSensor beta-lactamase reporter assay (irf1-bla TF-1 cells)
Format: cell-based, human
applied.conditions: ratio EPO IP / IL-6 IP
Text: […]
Is EPO/IL-6 at least 20? Then Y. If not, N.

molecule: CSc1cc(Nc2nn([C@H]3COCC[C@@H]3C#N)cc2C(N)=O)ccc1Cl
class.label: Y

molecule: N#Cc1ccc(Nc2nn([C@H]3COCC[C@@H]3C#N)cc2C(N)=O)cc1 [Comp. Ex-4, reference compound]
class.label: N

molecule: N#C[C@H]1CCOC[C@@H]1n1cc(C(N)=O)c(Nc2ccc(OC(F)(F)F)cc2)n1 [Comp. Ex-3, reference compound]
class.label: N

molecule: N#C[C@H]1CCOC[C@@H]1n1cc(C(N)=O)c(Nc2ccc(Cl)c(Cl)c2)n1 [Comp. Ex-2, reference compound]
class.label: Y

molecule: COc1cc(Nc2nn([C@H]3COCC[C@@H]3C#N)cc2C(N)=O)ccc1Cl
class.label: N

Now look at this entry.
Task item: Check the entry N#C[C@H]1CCOC[C@@H]1n1cc(C(N)=O)c(Nc2ccc(Cl)cc2)n1 [Comp. Ex-1, reference compound] : does EPO/IL-6 equal or exceed 20?
Reply: N

###

System: EPO/Jak2/Stat5 pathway
assay.notes: EPO CellSensor beta-lactamase reporter assay (irf1-bla TF-1 cells)
Type: cell-based, human
applied.conditions: Homo sapiens; irf1-bla TF-1 cells, EPO at EC80; read-out: EPO IP
property.name: IC50 (nM)
Report the figure in nM without appending any unit label.

Solved entries (count: 3):
compound: N#C[C@H]1CCOC[C@@H]1n1cc(C(N)=O)c(Nc2ccc(Cl)c(Cl)c2)n1 [Comp. Ex-2, reference compound]
tested.system: EPO/Jak2/Stat5 pathway
IC50 / nM: 2170

compound: N#C[C@H]1CCOC[C@@H]1n1cc(C(N)=O)c(Nc2ccc(Cl)cc2)n1 [Comp. Ex-1, reference compound]
tested.system: EPO/Jak2/Stat5 pathway
IC50 / nM: 132

compound: N#Cc1ccc(Nc2nn([C@H]3COCC[C@@H]3C#N)cc2C(N)=O)cc1 [Comp. Ex-4, reference compound]
tested.system: EPO/Jak2/Stat5 pathway
IC50 / nM: 89

Let us examine a further case.
Task item: Field request: IC50 | item: N#C[C@H]1CCOC[C@@H]1n1cc(C(N)=O)c(Nc2ccc(OC(F)(F)F)cc2)n1 [Comp. Ex-3, reference compound]
Reply: 80

###

The compounds listed here are annotated with their IC50.
tested.system: Tyk2 (Homo sapiens (Human), UniProt P29597)
Sequence (P29597 897-1176): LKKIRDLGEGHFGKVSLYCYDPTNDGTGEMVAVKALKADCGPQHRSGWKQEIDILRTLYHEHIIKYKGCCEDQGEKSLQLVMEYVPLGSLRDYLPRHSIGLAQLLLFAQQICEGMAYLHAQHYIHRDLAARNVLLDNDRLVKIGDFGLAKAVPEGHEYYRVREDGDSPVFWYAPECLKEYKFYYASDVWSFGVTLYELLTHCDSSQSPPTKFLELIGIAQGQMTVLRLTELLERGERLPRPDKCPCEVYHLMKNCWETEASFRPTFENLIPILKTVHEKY
Report the figure in nM without appending any unit label.

compound: CS(=O)(=O)c1ccc(Nc2nn([C@H]3CCCC[C@@H]3C#N)c3cc[nH]c(=O)c23)cc1 [Reference Compound No. 2, reference compound]
endpoint.result: 0.28

Let us examine a further case.
Task item: Field request: IC50 | item: CN(C)[C@H]1CC[C@H](n2cc(C(N)=O)c(Nc3ccc(Cl)cc3)n2)[C@@H](C#N)C1 (single isomer, unassigned) [Reference Compound No. 1]
Reply: 14

###

tested.system: JAK2 (Homo sapiens (Human))
Sequence (O60674 849-1124): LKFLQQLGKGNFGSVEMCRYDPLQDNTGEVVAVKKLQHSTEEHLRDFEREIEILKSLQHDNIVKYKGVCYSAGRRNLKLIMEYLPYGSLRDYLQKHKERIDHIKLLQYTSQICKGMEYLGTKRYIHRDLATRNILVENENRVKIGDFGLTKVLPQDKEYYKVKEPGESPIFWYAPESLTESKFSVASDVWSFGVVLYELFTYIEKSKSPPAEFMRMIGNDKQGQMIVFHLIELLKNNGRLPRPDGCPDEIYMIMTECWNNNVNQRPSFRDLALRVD
assay.notes: JAK biochemical HTRF enzyme assay, JAK2
applied.conditions: reference compound, mean +/- spread across assay runs
property.name: pIC50
Worth noting: pIC50 values are minus log10 of concentrations stated in mol/L.

Task item: Field request: pIC50 | item: CS(=O)(=O)c1ccc(Nc2nn([C@H]3CCCC[C@@H]3C#N)c3cc[nH]c(=O)c23)cc1 [Reference Compound No. 2, reference compound]
Reply: 9.00
